- System: LN18 glioblastoma cell line
- method_notes: In-vitro cell survival assay (Alamar blue), LN18
- Type: cell-based
- particulars: Homo sapiens, LN-18, 24 h; LN18, one day after compound addition
Classification field. Basis: EC50. Definitions: Low (below 7 µM), Mid (7 µM to below 30 µM), High (30 µM or more)

Study these solved cases before continuing.
NCC1CCN(C(=O)c2ccc(Nc3ncc(Cl)c(Nc4ccc5ncsc5c4)n3)cc2)CC1 [drawing 463]: High
CN(C)CC(C)(C)CNC(=O)c1cccc(Nc2nccc(Nc3ccc4ncsc4c3)n2)c1 [drawing 413]: Mid
Cc1cccc(Nc2nccc(Nc3cccc(C(=O)NC4CCN(C)CC4)c3)n2)c1 [drawing 422]: Low
Cc1cccc(Nc2nccc(Nc3cccc(C(=O)NCc4ccccc4F)c3)n2)c1 [drawing 412]: Low
Cc1ccc(Cn2c(NCc3nc4ccccc4n3C)nc3ccccc32)cc1 [drawing 355]: High

-- ask Where would C[C@H](O)CN(C[C@H](C)O)C(=O)c1cccc(Nc2nccc(Nc3ccc4ncsc4c3)n2)c1 [drawing 420] land among the classes by reported EC50?
-- reply High

-- ask Where would O=C(NCCc1ccccc1)c1cccc(Nc2nccc(Nc3ccc4ncsc4c3)n2)c1 [drawing 418] land among the classes by reported EC50?
-- reply Mid

-- ask Where would Cc1[nH]c2nc(NCc3cccc([N+](=O)[O-])c3)nn2c(=O)c1Cc1ccccc1 [drawing 359] land among the classes by reported EC50?
-- reply High

-- ask Where would Cc1ccc(F)cc1S(=O)(=O)Nc1cccc(C(=O)OCC(=O)NC2CCCCC2)c1 [drawing 404] land among the classes by reported EC50?
-- reply High

-- ask Where would NC(=O)c1c(NC(=O)[C@H]2CC(=O)N(c3ccccc3)C2)sc2c1CCCC2 [drawing 356] land among the classes by reported EC50?
-- reply High

-- ask Where would O=C(NCCc1ccc(F)cc1)c1cccc(Nc2nccc(Nc3ccc4ncsc4c3)n2)c1 [drawing 372] land among the classes by reported EC50?
-- reply Low

-- ask Where would Brc1cccc(Nc2nccc(Nc3ccc4ncsc4c3)n2)c1 [drawing 442] land among the classes by reported EC50?
-- reply High

-- ask Where would Cc1cc(C)n(-c2cccc(C(=O)NC[C@H]3Cc4cc(Cl)cc(-c5cnccn5)c4O3)c2)n1 land among the classes by reported EC50?
-- reply High

-- ask Where would CC(C)c1nc(Nc2ccc(C(=O)N3CCOCC3)cc2)nc(Nc2ccc3ncsc3c2)n1 [drawing 460] land among the classes by reported EC50?
-- reply High

-- ask Where would O=C(NCc1ccco1)c1cccc(Nc2nccc(Nc3ccc4ncsc4c3)n2)c1 [drawing 376] land among the classes by reported EC50?
-- reply Mid

-- ask Where would O=C(c1ccccc1)n1nc(-c2ccco2)nc1NCc1ccccc1 land among the classes by reported EC50?
-- reply High

###

- system_name: EGFR (Homo sapiens, UniProt P00533)
- Sequence (P00533 25-1210, species assumed): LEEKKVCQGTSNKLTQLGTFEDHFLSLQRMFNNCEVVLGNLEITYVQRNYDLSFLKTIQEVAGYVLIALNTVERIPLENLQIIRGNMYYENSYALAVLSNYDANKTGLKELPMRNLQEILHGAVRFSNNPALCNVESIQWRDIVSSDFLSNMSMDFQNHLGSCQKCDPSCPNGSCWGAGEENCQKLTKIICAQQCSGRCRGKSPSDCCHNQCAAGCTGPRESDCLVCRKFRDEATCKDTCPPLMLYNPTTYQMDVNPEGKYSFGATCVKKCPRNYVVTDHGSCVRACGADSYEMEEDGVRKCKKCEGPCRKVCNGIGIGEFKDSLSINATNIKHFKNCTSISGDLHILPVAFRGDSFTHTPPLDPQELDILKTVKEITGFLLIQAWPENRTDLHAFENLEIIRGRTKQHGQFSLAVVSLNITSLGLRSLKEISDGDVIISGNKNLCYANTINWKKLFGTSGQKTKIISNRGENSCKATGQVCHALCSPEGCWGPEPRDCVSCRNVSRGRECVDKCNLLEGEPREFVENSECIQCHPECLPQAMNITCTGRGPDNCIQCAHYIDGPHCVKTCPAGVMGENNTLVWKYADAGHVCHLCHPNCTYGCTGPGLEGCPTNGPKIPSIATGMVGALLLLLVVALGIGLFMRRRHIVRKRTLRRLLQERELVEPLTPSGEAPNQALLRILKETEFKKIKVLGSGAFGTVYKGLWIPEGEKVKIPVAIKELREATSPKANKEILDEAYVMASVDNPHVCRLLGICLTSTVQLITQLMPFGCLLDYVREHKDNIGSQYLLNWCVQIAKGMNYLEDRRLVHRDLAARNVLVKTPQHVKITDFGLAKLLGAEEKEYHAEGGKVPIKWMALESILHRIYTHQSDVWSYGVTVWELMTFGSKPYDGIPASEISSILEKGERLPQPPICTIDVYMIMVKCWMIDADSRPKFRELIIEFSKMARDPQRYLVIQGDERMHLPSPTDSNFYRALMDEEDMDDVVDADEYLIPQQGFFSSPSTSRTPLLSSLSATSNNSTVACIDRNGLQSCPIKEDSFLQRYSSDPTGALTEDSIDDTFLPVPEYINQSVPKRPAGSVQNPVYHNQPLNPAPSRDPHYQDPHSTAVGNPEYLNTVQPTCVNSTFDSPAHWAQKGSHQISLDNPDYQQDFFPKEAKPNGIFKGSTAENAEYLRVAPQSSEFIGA
pIC50: −log10 of the molar value.
measure: pIC50

O=C(NCC1CCNCC1)c1ccc(Nc2ncc(Cl)c(Nc3ccc4ncsc4c3)n2)cc1 [drawing 331]: < 5.30
CN1CCN(C(=O)c2cccc(Nc3ncc(Cl)c(Nc4ccc5ncsc5c4)n3)c2)CC1 [drawing 329]: < 5.30

Hey, quick one: what's pIC50 for each of these?
1. O=C(c1cccc(Nc2ncc(Cl)c(Nc3ccc4ncsc4c3)n2)c1)N1CCCCC1 [drawing 328]
2. Nc1ccc(Nc2nccc(Nc3cc(C4CC4)[nH]n3)n2)cc1 [drawing 299]
3. CN1CCN(C(=O)c2ccc(Nc3ncc(Cl)c(Nc4ccc5ncsc5c4)n3)cc2)CC1 [drawing 307]

-- reply
1. < 5.30
2. 4.72
3. < 5.30

Hey, quick one: what's pIC50 for each of these?
1. O=C(NCC1CCNCC1)c1cccc(Nc2ncc(Cl)c(Nc3ccc4ncsc4c3)n2)c1 [drawing 334]
2. C1=C(c2cccc(Nc3nccc(Nc4ccc5ncsc5c4)n3)c2)CCNC1 [drawing 304]
3. NCC1CCN(C(=O)c2ccc(Nc3ncc(Cl)c(Nc4ccc5ncsc5c4)n3)cc2)CC1 [drawing 326]

-- reply
["< 5.30", "< 5.30", "< 5.30"]

These entries and their values trace back to patent US9963452B2.
